tested on: rodent lifetime carcinogenesis bioassay, tumor incidence TD50; test: carcinogenic potency in animals, long-term in vivo studies, CPDB compilation (AID 1745844); conditions: rat; strain Fischer 344; males; in feed; site: any site (literature study); lesion: several types; types named in the paper; dosed 78 weeks; study length 106 weeks
Let's look at some compounds and their measured TD50.
Respond with the bare value in mg/kg/day.

• c1ccc(NNc2ccccc2)cc1 = 6.85

q: Find the recorded TD50 belonging to CCn1c2ccccc2c2cc(N)ccc21 and report it.
a: 42.7

q: Then what about the compound Nc1ccc2c(c1)C(=O)c1ccccc1C2=O ?
a: 759

---

test system: rodent lifetime carcinogenesis bioassay, tumor incidence TD50; experiment: carcinogenic potency in animals, long-term in vivo studies, CPDB compilation (AID 1745844); conditions: hamster; strain Syrian Golden; males; in drinking water; site: liver; lesion: several types; types named in the paper; dosed 104 weeks; study length 104 weeks
PARAMETER MEASURED: TD50

q: Reported TD50 for O=NN1CCOCC1 : what is it?
a: 9.14 mg/kg/day
